# ASSAY_SUMMARY: Phase 1 single ascending dose plasma pharmacokinetics of 40-minute IV infusion of R(−)-ketamine and its metabolites
# EXPERIMENTAL_SETUP: both, human, plasma, iv, 150 mg, Arithmetic mean AUC0-24h, 150 mg R(−)-ketamine IV
AUC(0-t) overview
Give your result in ng·h/mL as a bare value.

> print(dat)
                                   molecule  units.symbol  value.observed
1  CN[C@@]1(c2ccccc2Cl)CCCCC1=O.Cl [R(−)-ketamine]       ng·h/mL            1720

// switching to the query molecule
// field: AUC(0-t); key: NC1(c2ccccc2Cl)CCCCC1=O (centres unmarked) [norketamine] ; value = 3140

----------
# ASSAY_SUMMARY: Phase 1 single ascending dose plasma pharmacokinetics of 40-minute IV infusion of R(−)-ketamine and its metabolites
# EXPERIMENTAL_SETUP: both, human, plasma, iv, 5 mg
Cmax overview
Give your result in ng/mL as a bare value.

// field: Cmax; key: NC1(c2ccccc2Cl)CCCCC1=O (centres unmarked) [norketamine] ; value = 11.4

// field: Cmax; key: CN[C@@]1(c2ccccc2Cl)CCCCC1=O.Cl [R(−)-ketamine] ; value = 33.9

----------
# ASSAY_SUMMARY: Phase 1 single ascending dose plasma pharmacokinetics of 40-minute IV infusion of R(−)-ketamine and its metabolites
# EXPERIMENTAL_SETUP: both, human, plasma, iv, 150 mg
PROPERTY_NAME: AUC(0-inf) (ng·h/mL)
Give your result in ng·h/mL as a bare value.

> print(dat)
                                   compound  value.observed
1  CN[C@@]1(c2ccccc2Cl)CCCCC1=O.Cl [R(−)-ketamine]            1820

// switching to the query compound
// field: AUC(0-inf); key: NC1(c2ccccc2Cl)CCCCC1=O (centres unmarked) ; value = 3530

----------
# ASSAY_SUMMARY: Phase 1 single ascending dose plasma pharmacokinetics of 40-minute IV infusion of R(−)-ketamine and its metabolites
# EXPERIMENTAL_SETUP: both, human, plasma, intravenous
PROPERTY_NAME: clearance

// field: clearance; key: CN[C@@]1(c2ccccc2Cl)CCCCC1=O.Cl [R(−)-ketamine] ; value = 1280 to 1630 mL/min

Taken from patent US20260027068A1.
